- Tested on: human Factor XI mRNA
- EXPERIMENTAL_PROTOCOL: Dose-dependent inhibition in HepG2 cells, lipofectin (Example 4)
- Assay type: cell-based
- RUN_PARAMETERS: 18.75 nM, 16 hours
In the oligonucleotide strings, read from the 5' end, every base follows the letter of its sugar. An asterisk marks phosphorothioate; unmarked linkages are phosphodiester. Other units and linkages are bracketed, terminal groups are in braces. A string of capitals states the bases alone. e = 2'-O-(2-methoxyethyl) (MOE); [5mC] = 5-methylcytosine; d = 2'-deoxy (DNA)
The substances listed here are annotated with their percent inhibition of Factor XI mRNA, relative to untreated control cells.
Unit % implied. Number only.

Recorded results for 5 substances are shown here.
416993 (antisense e[5mC]*eT*dT*dT*dG*dA*dG*dA*dT*dT*d[5mC]*dT*dT*dT*dG*eG*eG*e[5mC]*e[5mC]*eA) [compound 416993] = 37
417002 (antisense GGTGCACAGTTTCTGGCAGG; 2-13-5 gapmer, wing sugar chemistry not given here, further chemistry not given here) [compound 417002] = 52
416941 (antisense eG*eG*e[5mC]*dA*dG*d[5mC]*dG*dG*dA*d[5mC]*dG*dG*d[5mC]*dA*dT*dT*dG*eG*eT*eG) [compound 416941] = 54
416984 (antisense e[5mC]*eA*dA*d[5mC]*d[5mC]*dG*dG*dG*dA*dT*dG*dA*dT*dG*dA*eG*eT*eG*e[5mC]*eA) [compound 416984] = 50
416999 (antisense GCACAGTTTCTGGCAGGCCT; 2-13-5 gapmer, wing sugar chemistry not given here, further chemistry not given here) [compound 416999] = 37

# percent inhibition of Factor XI mRNA, relative to untreated control cells (substance: 416969 (antisense eG*e[5mC]*d[5mC]*d[5mC]*dT*dT*d[5mC]*dA*dT*dG*dT*d[5mC]*dT*dA*dG*eG*eT*e[5mC]*e[5mC]*eA) [compound 416969] ) is 39

Lab note: 416826 (antisense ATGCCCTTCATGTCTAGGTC; 5-10-5 gapmer, wing sugar chemistry not given here, further chemistry not given here) [compound 416826] gave percent inhibition of Factor XI mRNA, relative to untreated control cells of 36

Briefly, percent inhibition of Factor XI mRNA, relative to untreated control cells measured for 416895 (antisense eT*eA*eT*dG*d[5mC]*d[5mC]*d[5mC]*dT*dT*d[5mC]*dA*dT*dG*dT*d[5mC]*dT*dA*eG*eG*eT) [compound 416895] : 57

According to the records, this substance 416858 (antisense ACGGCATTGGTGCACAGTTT; 5-10-5 gapmer, wing sugar chemistry not given here, further chemistry not given here) [compound 416858] displays percent inhibition of Factor XI mRNA, relative to untreated control cells of 28

Form field percent inhibition of Factor XI mRNA, relative to untreated control cells, entry 412203 (antisense eA*eA*eT*eG*eT*d[5mC]*dT*dT*dT*dG*dT*dT*dG*d[5mC]*dA*eA*eG*e[5mC]*eG*e[5mC]) [compound 412203] : 40

The recorded percent inhibition of Factor XI mRNA, relative to untreated control cells for entry 416923 (antisense eT*eG*e[5mC]*dA*d[5mC]*dA*dG*dT*dT*dT*d[5mC]*dT*dG*dG*d[5mC]*dA*dG*eG*e[5mC]*e[5mC]) [compound 416923] equals 47

Noted for 416856 (antisense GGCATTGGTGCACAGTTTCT; 5-10-5 gapmer, wing sugar chemistry not given here, further chemistry not given here) [compound 416856] : its percent inhibition of Factor XI mRNA, relative to untreated control cells reads 45

Value of measured percent inhibition of Factor XI mRNA, relative to untreated control cells for the entry 416931 (antisense eG*eG*e[5mC]*dA*dT*dT*dG*dG*dT*dG*d[5mC]*dA*d[5mC]*dA*dG*dT*dT*eT*e[5mC]*eT) [compound 416931] : 39

response.value for 416925 (antisense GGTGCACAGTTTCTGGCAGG; 3-14-3 chimeric gapmer, wing sugar chemistry not given here, further chemistry not given here) [compound 416925] (field: percent inhibition of Factor XI mRNA, relative to untreated control cells) = 38

The substance listed as 416926 (antisense eT*eG*eG*dT*dG*d[5mC]*dA*d[5mC]*dA*dG*dT*dT*dT*d[5mC]*dT*dG*dG*e[5mC]*eA*eG) [compound 416926] shows percent inhibition of Factor XI mRNA, relative to untreated control cells equal to 43

###

- Test system: human Factor XI mRNA
- EXPERIMENTAL_PROTOCOL: Dose-dependent inhibition and IC50 in HepG2 cells, microwalk gapmers, electroporation (Example 16)
- Assay type: cell-based
- RUN_PARAMETERS: electroporation, 1,500 nM
In the oligonucleotide strings, read from the 5' end, every base follows the letter of its sugar. An asterisk marks phosphorothioate; unmarked linkages are phosphodiester. Other units and linkages are bracketed, terminal groups are in braces. A string of capitals states the bases alone. e = 2'-O-(2-methoxyethyl) (MOE); [5mC] = 5-methylcytosine; d = 2'-deoxy (DNA)
Reported percent inhibition of Factor XI mRNA values for a set of substances
I only need the number, in %, no unit after it.

449710 (antisense e[5mC]*eA*e[5mC]*dA*dG*dT*dT*dT*d[5mC]*dT*dG*dG*d[5mC]*eA*eG*eG) [compound 449710] = 52
449711 (antisense eA*e[5mC]*dA*dG*dT*dT*dT*d[5mC]*dT*dG*dG*d[5mC]*eA*eG) [compound 449711] = 1
445531 (antisense eG*eG*e[5mC]*eA*eT*dT*dG*dG*dT*dG*d[5mC]*dA*d[5mC]*eA*eG*eT*eT*eT) [compound 445531] = 78
416850 (antisense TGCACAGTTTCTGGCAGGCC; 5-10-5 gapmer, wing sugar chemistry not given here, further chemistry not given here) [compound 416850] = 69
449707 (antisense e[5mC]*eA*e[5mC]*eA*dG*dT*dT*dT*d[5mC]*dT*dG*dG*e[5mC]*eA*eG*eG) [compound 449707] = 63

Read the next record carefully.
// 416858 (antisense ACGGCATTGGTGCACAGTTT; 5-10-5 gapmer, wing sugar chemistry not given here, further chemistry not given here) [compound 416858] : percent inhibition of Factor XI mRNA value = 78

###

- EXPERIMENTAL_PROTOCOL: Cynomolgus monkeys: body and organ weights (Example 29)
- Assay type: in vivo
- RUN_PARAMETERS: escalating doses 5, 10, 25 mg/kg s.c., day 78
In the oligonucleotide strings, read from the 5' end, every base follows the letter of its sugar. An asterisk marks phosphorothioate; unmarked linkages are phosphodiester. Other units and linkages are bracketed, terminal groups are in braces. A string of capitals states the bases alone. e = 2'-O-(2-methoxyethyl) (MOE); [5mC] = 5-methylcytosine; d = 2'-deoxy (DNA)
MEASURE_NAME: Body weight (g)
Report the figure in g without appending any unit label.

Reference set (3 entries):
ISIS 417002: gapmer of Table 8 (antisense eG*eG*dT*dG*d[5mC]*dA*d[5mC]*dA*dG*dT*dT*dT*d[5mC]*dT*dG*eG*e[5mC]*eA*eG*eG) = 2570
ISIS 416850: gapmer of Table 8 (antisense eT*eG*e[5mC]*eA*e[5mC]*dA*dG*dT*dT*dT*d[5mC]*dT*dG*dG*d[5mC]*eA*eG*eG*e[5mC]*e[5mC]) = 2660
ISIS 416858: gapmer of Table 8 (antisense eA*e[5mC]*eG*eG*e[5mC]*dA*dT*dT*dG*dG*dT*dG*d[5mC]*dA*d[5mC]*eA*eG*eT*eT*eT) = 2713

Sure, the documented Body weight for ISIS 416864: gapmer of Table 8 (antisense eG*eG*e[5mC]*eA*eG*d[5mC]*dG*dG*dA*d[5mC]*dG*dG*d[5mC]*dA*dT*eT*eG*eG*eT*eG) is 2822

Please fill in: Body weight reported for ISIS 416838: gapmer of Table 6 (antisense eG*e[5mC]*eA*eA*e[5mC]*d[5mC]*dG*dG*dG*dA*dT*dG*dA*dT*dG*eA*eG*eT*eG*e[5mC]) = 2766

###

// reported Spleen weight as percentage of body weight for each item listed
- EXPERIMENTAL_PROTOCOL: Tolerability in CD1 mice: body and organ weight (Example 25)
- Format: in vivo
- RUN_PARAMETERS: 50 mg/kg s.c. twice per week for 6 weeks, end of study
In the oligonucleotide strings, read from the 5' end, every base follows the letter of its sugar. An asterisk marks phosphorothioate; unmarked linkages are phosphodiester. Other units and linkages are bracketed, terminal groups are in braces. A string of capitals states the bases alone. e = 2'-O-(2-methoxyethyl) (MOE); [5mC] = 5-methylcytosine; d = 2'-deoxy (DNA)
The answer should read as a number with its unit following.

ISIS 445509: microwalk gapmer of Table 51 (antisense e[5mC]*eG*eG*eA*e[5mC]*eG*dG*d[5mC]*dA*dT*dT*dG*dG*dT*eG*e[5mC]*eA*e[5mC]*eA*eG) = 0.5%
ISIS 445531: microwalk gapmer of Table 51 (antisense eG*eG*e[5mC]*eA*eT*dT*dG*dG*dT*dG*d[5mC]*dA*d[5mC]*eA*eG*eT*eT*eT) = 0.5%
ISIS 445513: microwalk gapmer of Table 51 (antisense eG*e[5mC]*eA*eG*e[5mC]*eG*dG*dA*d[5mC]*dG*dG*d[5mC]*dA*dT*eT*eG*eG*eT*eG*e[5mC]) = 0.4%

// ISIS 445522: microwalk gapmer of Table 51 (antisense eG*e[5mC]*eA*e[5mC]*eA*dG*dT*dT*dT*d[5mC]*dT*dG*dG*e[5mC]*eA*eG*eG*e[5mC]) : Spleen weight as percentage of body weight value = 0.4%

Spleen weight as percentage of body weight reading for ISIS 445498: microwalk gapmer of Table 51 (antisense eG*eG*eT*eG*e[5mC]*eA*d[5mC]*dA*dG*dT*dT*dT*d[5mC]*dT*eG*eG*e[5mC]*eA*eG*eG) : 0.5%
